METHOD: Caspase-3/7 induction in CHO-K1 cells by small molecules, qHTS cell viability counter screen (AID 1346979); note: nearly all actives have a fitted effect of over 35% in size
CONDITION_CONTEXT: CellTiter-Fluor fluorescence, 17 h; series mostly up to 92.4 µM
Source text: National Center for Advancing Translational Sciences [NCATS] NIH Chemical Genomics Center [NCGC] U.S. Environmental Protection Agency [EPA] National Institutes of Environmental Health Sciences [NIEHS] National Toxicology Program [NTP] U.S. Food and Drug Administration [FDA] Apoptosis is a process of programmed cell death and plays a central role in the development of multicellular organisms. […]
Records with an inconclusive call do not appear. Active and inactive are the calls of the source. Calls come from the whole dose curve; as a rule, active = well fitted cell-killing curve with a large enough effect in the repeat runs; inconclusive = weak or mixed curves, or effect the other way; inactive = no such curve, though single readings can be large or run the other way.
Give your call using only these classes: yes (1) for active, no (0) for inactive

Query: Returns: the outcome recorded for `OC1CCCCC1` in this assay.
Response: no (0)

Query: recorded result category for `Cc1nnc(NS(=O)(=O)c2ccc(N)cc2)s1` in this test
Response: no (0)

Query: Fill in: this test's call for CC(C=O)Cc1ccc(C(C)(C)C)cc1 (stereo not given) is ___
Response: no (0)

Query: Given `Clc1cccc(Cl)c1NC1=NCCN1` , state the outcome it received in this test.
Response: no (0)

Query: Record lookup: outcome of this test for `O=C(Cl)c1ccc(C(=O)Cl)cc1` ?
Response: no (0)

Query: What did this assay record as the result for `CCCCCC(C)=O` ?
Response: no (0)

Query: Record lookup: outcome of this test for `CCCCCCCCCCCC(=O)N(C)CC(=O)O` ?
Response: no (0)

Query: // outcome(item) with item = `C=C(CC(=O)O)C(=O)O`
Response: no (0)

Query: Name the outcome recorded for `Cc1ncc(CO)c(CO)c1O` in the assay.
Response: no (0)

Query: In this assay, the call recorded for `CCCCCNCCCCC` was what?
Response: no (0)

Query: What did the test return for `CCOC(=O)CC(=O)OCC` ?
Response: no (0)

Query: Hello, I am checking results. What call was entered for `CC(=O)Nc1ccc(CC(=O)O)cc1` ?
Response: no (0)

Query: Look up the recorded call for `CCc1cccc(CC)c1N` in this test.
Response: no (0)

Query: Which outcome did this test record for the compound `OCc1ccc(Cl)cc1Cl` ?
Response: no (0)

Query: Record lookup: outcome of this test for `Cc1cc(CC(=O)O)n(C)c1C(=O)c1ccc(Cl)cc1` ?
Response: no (0)

Query: Please let me know the test result on file for `O=c1c(O)c(-c2ccc(O)c(O)c2)oc2cc(O)cc(O)c12` .
Response: yes (1)

Query: Which outcome did this test record for the compound NC1CCCCC1N (stereo not given) ?
Response: no (0)

Query: Check the results log: what was the call for `O=C(O)C1=NN(c2ccc(S(=O)(=O)O)cc2)C(=O)C1` ?
Response: no (0)

Query: Could you please tell me the result logged for `CC1(C)[C@@H](O[C@H]2O[C@H](C(=O)O)[C@@H](O)[C@H](O)[C@H]2O[C@@H]2O[C@H](C(=O)O)[C@@H](O)[C@H](O)[C@H]2O)CC[C@]2(C)[C@H]3C(=O)C=C4[C@@H]5C[C@@](C)(C(=O)O)CC[C@]5(C)CC[C@@]4(C)[C@]3(C)CC[C@@H]12` in this assay?
Response: no (0)

Query: Given OCC(O)CS (stereo not given) , state the outcome it received in this test.
Response: no (0)

###

Tested on: thyroid hormone receptor (rat, GH3 cells)
METHOD: qHTS assay to identify small molecule agonists of the thyroid receptor (TR) signaling pathway (AID 743066)
CONDITION_CONTEXT: GH3.TRE-Luc cells, TR agonist luciferase, 24 h; series mostly up to 83.9 µM
Results filed as inconclusive are left out. Activity calls are given as the source filed them. Calls follow the shape of the full dose curve.
OBSERVABLE: outcome

COMPOUND | READOUT_VALUE
c1cnc2c(c1)ccc1cccnc12 | inactive
OC[C@H]1O[C@@H](Oc2ccc(O)cc2)[C@H](O)[C@@H](O)[C@@H]1O | inactive
Cc1cc(CC(=O)O)n(C)c1C(=O)c1ccc(Cl)cc1 | inactive
O=c1c(O)c(-c2ccc(O)c(O)c2)oc2cc(O)cc(O)c12 | inactive
COC(=O)/C=C\C(=O)OC | inactive
Nc1nc(N)c2nc(-c3ccccc3)c(N)nc2n1 | inactive

Query: Quick one: outcome of `Cc1cc(C)c(O)c(C)c1` ?
Response: inactive

Query: If you can, please state the reported outcome value of `O=C1O[C@H]([C@H](O)CO)C(O)=C1O` .
Response: inactive

Query: Return reported outcome; argument: `CCCCCCCCC(=O)O`
Response: inactive

Query: Param item = `C[n+]1ccn(CCO)c1` ; retrieve measured outcome.
Response: inactive

Query: Quick check: outcome of CC(C=O)Cc1ccc(C(C)(C)C)cc1 (centres undefined) ?
Response: inactive

Query: Fill blank: measured outcome of the compound `CS(=O)(=O)c1ccc(Cl)cc1` is ____.
Response: inactive

Query: Would you kindly share the measured outcome for CC(CN1c2ccccc2Sc2ccccc21)N(C)C (centres undefined) ?
Response: inactive

Query: Entry `C[Si](C)(C)N[Si](C)(C)C` : reported outcome = ?
Response: inactive

###

METHOD: qHTS RealTime-Glo MT Cell Viability Assay in HepG2 cells - 0 hour (AID 1224889); note: nearly all actives have a fitted effect of over 50% in size
CONDITION_CONTEXT: RealTime-Glo luminescence; series mostly up to 76.8 µM
Inconclusive results are not listed. Activity calls are given as the source filed them. The call rests on the fitted dose curve; in most records, active means well fitted cell-killing curve with a large enough effect in the repeat runs; inconclusive means weak or mixed curves, or effect the other way; inactive means flat fitted curve, though single readings scatter.
OBSERVABLE: outcome

Worked cases, answers included:
MOLECULE | outcome
CC(=O)OCCC(C)C | inactive
CCCCCCCCO | inactive
Cc1cc(CC(=O)O)n(C)c1C(=O)c1ccc(Cl)cc1 | inactive
O=C1OC(=O)c2c(Cl)c(Cl)c(Cl)c(Cl)c21 | inactive
Nc1cccc(N)n1 | inactive
CC[N+](CC)(CC(=O)Nc1c(C)cccc1C)Cc1ccccc1 | inactive
OCc1ccc(Cl)cc1Cl | inactive
COc1ccccc1[N+](=O)[O-] | inactive
CCc1cccc(CC)c1N | inactive
COc1ccc([C@@H]2CC(=O)c3c(O)cc(O[C@@H]4O[C@H](CO[C@@H]5O[C@@H](C)[C@H](O)[C@@H](O)[C@H]5O)[C@@H](O)[C@H](O)[C@H]4O)cc3O2)cc1OC | inactive

Query: If you can, please state the reported outcome value of `N[C@@H](Cc1cc(I)c(Oc2ccc(O)c(I)c2)c(I)c1)C(=O)O` .
Response: inactive

Query: Sample `CCCCCCC(=O)O` — what was its outcome?
Response: inactive

Query: Form field: reported outcome of `Cc1ccc([N+](=O)[O-])cc1N`
Response: inactive

Query: So what's the measured outcome for this one? `CC1=CC(=O)CC(C)(C)C1`
Response: inactive

Query: What does the data say about its outcome? Entry: `Cc1cccc(C)c1[N+](=O)[O-]`
Response: inactive

Query: Form field: reported outcome of `CCCN(CCC)C(=O)SCC`
Response: inactive

Query: Data request, read-out outcome, for `O=C(O)Cc1c[nH]c2ccccc12`
Response: inactive

Query: # get_value(readout='outcome', item= `CC(=O)c1nccs1` )
Response: inactive

Query: // returns reported outcome for input `CCCCCC(C)=O`
Response: inactive

###

METHOD: qHTS RealTime-Glo MT Cell Viability Assay in HepG2 cells - 32 hour (AID 1224877); note: nearly all actives have a fitted effect of over 55% in size
CONDITION_CONTEXT: RealTime-Glo luminescence; series mostly up to 76.8 µM
Inconclusive results are not listed. Active and inactive are the calls of the source. Calls follow the shape of the dose curve; as a rule, active = well fitted cell-killing curve with a large enough effect in the repeat runs; inconclusive = weak or mixed curves; inactive = flat fitted curve, though single readings scatter.
OBSERVABLE: outcome

Study these solved cases before continuing.
COMPOUND | outcome
Brc1ccc(Oc2ccc(Br)cc2)cc1 | inactive
O=c1n(CCCN2CCN(c3cccc(Cl)c3)CC2)nc2ccccn12 | inactive
CC(=O)CC(=O)N(C)C | inactive
OCC(CO)(CO)CO | inactive
O=[N+]([O-])c1ccccc1C(F)(F)F | inactive

Query: Need outcome, item CC(=O)OC(C)(C)C1CC=C(C)CC1 (configuration not stated)
Response: inactive

Query: May I ask what outcome has been recorded for `CN=C(NC#N)NCCSCc1nc[nH]c1C` ?
Response: inactive

###

METHOD: qHTS assay to test for compound auto fluorescence at 460 nm (blue) in HepG2 cells (AID 720687)
CONDITION_CONTEXT: autofluorescence 405/460 nm, 1 h; series mostly up to 91.3 µM
The source made the active and inactive calls. Calls come from the whole dose curve; as a rule, active = well fitted curve in the direction sought with a large enough effect in the repeat runs; inconclusive = weak or mixed curves; inactive = flat fitted curve, though single readings scatter.
OBSERVABLE: outcome

Completed entries (count: 5):
COMPOUND | outcome
O=C(Cl)c1ccc(C(=O)Cl)cc1 | inactive
Cc1cccc(C)c1[N+](=O)[O-] | inactive
C=C(C)CC(C)(C)C | inactive
CCCN(CCC)C(=O)SCC | inactive
NC1CCCCC1N (configuration not stated) | inactive

Now for another entry.
Query: Dear colleague, I am looking for the recorded outcome of the following compound: `NCCNCCNCCN`
Response: inactive
